Could you please report measured IC50 for the items listed next?
- TARGET: endogenous CETP from serum (Homo sapiens (Human), UniProt P11597)
- Sequence (P11597 18-493 limits assumed): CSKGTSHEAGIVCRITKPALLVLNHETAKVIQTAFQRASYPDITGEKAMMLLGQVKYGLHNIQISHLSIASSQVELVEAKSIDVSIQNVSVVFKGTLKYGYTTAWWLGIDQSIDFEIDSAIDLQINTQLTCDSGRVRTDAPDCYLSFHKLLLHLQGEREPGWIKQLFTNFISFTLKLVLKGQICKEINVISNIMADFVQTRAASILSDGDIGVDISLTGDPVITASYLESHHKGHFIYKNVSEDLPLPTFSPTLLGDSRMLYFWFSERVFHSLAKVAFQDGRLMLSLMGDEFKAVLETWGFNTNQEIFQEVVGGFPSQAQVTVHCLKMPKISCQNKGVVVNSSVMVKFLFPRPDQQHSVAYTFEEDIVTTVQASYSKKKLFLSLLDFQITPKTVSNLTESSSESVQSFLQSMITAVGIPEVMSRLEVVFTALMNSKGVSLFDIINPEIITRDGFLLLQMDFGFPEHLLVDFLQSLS
- ASSAY SUMMARY: RTA assay in 95% human serum (CETP-catalyzed CE and TG transfer, endogenous CETP)
- Format: biochemical
- EXPERIMENTAL CONDITIONS: generally RTA assay in 95% human serum; read-out: IC50
Answer format: numeric, µM implied, no suffix.

// COc1cc(F)c(C(C)C)cc1-c1cnc(N(C)C)nc1CN1C(=O)OC(c2cc(C(F)(F)F)cc(C(F)(F)F)c2)C12CC2 (stereo not drawn) [Example 10] : IC50 value = 0.345

// COc1cc(F)c(-c2ccc(C(=O)O)cc2C)cc1-c1ccc(C(F)(F)F)nc1CN1C(=O)O[C@H](c2cc(C(F)(F)F)cc(C(F)(F)F)c2)C12CC2 [Example 3] : IC50 value = 0.119

// COc1ccc(-c2ccc(C(=O)O)cc2C)cc1-c1cnc(N(C)S(C)(=O)=O)nc1CN1C(=O)O[C@H](c2cc(C(F)(F)F)cc(C(F)(F)F)c2)C12CCC2 [Example 14] : IC50 value = 0.561

// COC(=O)c1ccc(-c2ccc(OC)c(-c3cnc(SC)nc3CN3C(=O)O[C@H](c4cc(C(F)(F)F)cc(C(F)(F)F)c4)C34CC4)c2)c(C)c1 [Example 18] : IC50 value = 0.596

// COc1ccc(-c2ccc(C(=O)O)cc2C)cc1-c1cnc(N2CCOCC2)nc1CN1C(=O)O[C@H](c2cc(C(F)(F)F)cc(C(F)(F)F)c2)C12CCC2 [Example 13] : IC50 value = 0.242

// COc1ncc(-c2ccc(C(=O)O)cc2C)cc1-c1ccc(C(F)(F)F)nc1CN1C(=O)O[C@H](c2cc(C(F)(F)F)cc(C(F)(F)F)c2)C12CC2 [Example 4] : IC50 value = 0.173

====

- TARGET: endogenous CETP from serum (Homo sapiens (Human))
- ASSAY SUMMARY: RTA assay in 95% human serum (CETP-catalyzed CE and TG transfer, endogenous CETP)
- Assay type: biochemical
- EXPERIMENTAL CONDITIONS: generally RTA assay in 95% human serum; read-out: IC50
METRIC: IC50 (nM)
Answer format: numeric, nM implied, no suffix.

The measured IC50 that `COc1ccc(-c2ccc(CO)cc2C)cc1-c1cnc(N2CC(F)C2)nc1CN1C(=O)O[C@H](c2cc(C(F)(F)F)cc(C(F)(F)F)c2)C12CCC2` showed for endogenous CETP from serum (Homo sapiens (Human)) is 68

The measured IC50 that `COc1ccc(-c2ccc(C(=O)O)cc2C)cc1-c1cnc(N2CC(F)C2)nc1CN1C(=O)O[C@H](c2cc(C(F)(F)F)cc(C(F)(F)F)c2)C12CCC2` showed for endogenous CETP from serum (Homo sapiens (Human)) is 73

The measured IC50 that `COc1ccc(CCC(=O)O)cc1-c1ccc(C(F)(F)F)nc1CN1C(=O)O[C@H](c2cc(C(F)(F)F)cc(C(F)(F)F)c2)C12CC2` showed for endogenous CETP from serum (Homo sapiens (Human)) is 3360

The measured IC50 that `COc1ccc(-c2ccc(C(=O)O)cc2C)cc1-c1ccc(C(F)(F)F)nc1CN1C(=O)O[C@H](c2cc(C(F)(F)F)cc(C(F)(F)F)c2)C12CC2` showed for endogenous CETP from serum (Homo sapiens (Human)) is 212

The measured IC50 that `COc1ccc(-c2ccc(C(=O)O)cc2C)cc1-c1cnc(N2CCOCC2)nc1CN1C(=O)O[C@H](c2cc(C(F)(F)F)cc(C(F)(F)F)c2)C12CC2` showed for endogenous CETP from serum (Homo sapiens (Human)) is 272

The measured IC50 that COc1cc(F)c(C(C)C)cc1-c1cnc(N(C)C)nc1CN1C(=O)OC(c2cc(C(F)(F)F)cc(C(F)(F)F)c2)C12CCC2 (stereo not shown) showed for endogenous CETP from serum (Homo sapiens (Human)) is 318

The measured IC50 that `COc1ccc(-c2ccc(C(=O)O)cc2C)cc1-c1cnc(N2CC(F)C2)nc1CN1C(=O)O[C@H](c2cc(C(F)(F)F)cc(C(F)(F)F)c2)C12CC2` showed for endogenous CETP from serum (Homo sapiens (Human)) is 104
